Ref: paper PMC9243654

Recorded Papp at 4 h for the following molecules
experimentalProtocol: in vitro
experimentalSetup: PAMPA, pH 7.4, PAMPA-BBB log Pe (cm s−1)
Procedure: The PAMPA-BBB assay was conducted according to the methodology followed by Di et al., with some modifications as described below ([15]). First, the BBB solution was prepared by dissolving 8 mg of PBL and 4 mg of cholesterol in 600 μl of n-dodecane. […] Permeability across in vitro BBB of the bioactive compound was measured according to Equation (1) ([25]), with some modifications in concentration rates. […] Cequilibrium was calculated according to the following equation ([2]): […]
Reply with the number, then its unit.

Use these answered entries as a reference point.
O=C(O)c1ccc(O)c(O)c1 [Protocatechuic acid] :: 148 ×10⁻⁶ cm/s
COc1cc(C=O)ccc1O [Vanillin] :: 70.8 ×10⁻⁶ cm/s
C[C@H]1[C@H](C)CC[C@]2(C(=O)O)CC[C@]3(C)C(=CC[C@@H]4[C@@]5(C)C[C@@H](O)[C@H](O)C(C)(C)[C@@H]5CC[C@]43C)[C@H]12 [Corosolic acid] :: 6.03 ×10⁻⁶ cm/s

Then there is this molecule:
Data request, read-out Papp at 4 h, for COC(=O)[C@]12CCCC(C)(C)[C@@H]1CCc1cc(C(C)C)c(O)c(O)c12 [Methyl carnosate]
5.5 ×10⁻⁶ cm/s

* * *

experimentalProtocol: in vitro
experimentalSetup: PAMPA, pH 7.4, PAMPA-BBB log Pe (cm s−1)
Rule: Papp below 30 ×10⁻⁶ cm/s gives True. Equal to or above 30 ×10⁻⁶ cm/s gives False.

Please review the following examples before continuing.
O=c1ccc2cc(O[C@@H]3O[C@H](CO)[C@@H](O)[C@H](O)[C@H]3O)c(O)cc2o1 [Esculin] :: False
O=c1cc(-c2ccc(O)cc2)oc2cc(O)cc(O)c12 [Apigenin] :: True
COc1ccc(-c2cc(=O)c3c(O)cc(O)cc3o2)cc1O [Diosmetin] :: False
CC(C)c1cc2c(c(O)c1O)[C@@]1(C(=O)O)CCCC(C)(C)[C@@H]1CC2 [Carnosic acid] :: True

A record lists COc1cc(-c2oc3cc(O)cc(O)c3c(=O)c2O)ccc1O [Isorhamnetin] . Is its Papp below 30 ×10⁻⁶ cm/s?
False

* * *

experimentalProtocol: in vitro
experimentalSetup: PAMPA, pH 7.4, PAMPA-BBB log Pe
measuredParameter: Papp at 4 h (×10⁻⁶ cm/s)
Reply numerically in ×10⁻⁶ cm/s, unit not repeated.

Entry COc1ccc([C@@H]2CC(=O)c3c(O)cc(O)cc3O2)cc1O : reported Papp at 4 h = ?
5.01

* * *

experimentalProtocol: in vitro
experimentalSetup: compound within LPLE (Nothofagus pumilio, lenga PLE extract); N.D = not detected in acceptor
// reported PAMPA-BBB log Pe for each item listed
Express it in cm s−1; write the number only.

Recorded results for 3 compounds are shown here.
O=Cc1ccc(O)c(O)c1 :: −5.13
COc1cc(/C=C/C=O)ccc1O :: −4.65
CC1(C)C[C@@H]2C3=CC[C@@H]4[C@@]5(C)CC[C@H](O)[C@@](C)(C=O)C5CC[C@@]4(C)[C@]3(C)CC[C@@]2(C(=O)O)C[C@@H]1O (stereo partly shown) :: −4.74

Endpoint output: PAMPA-BBB log Pe of CCC(O)C1CC(C)C2(CC(=O)C3(C)C4=C(CCC32C)C2(C)CCC(=O)C(C)(CO)C2CC4)O1 (stereo not shown) . Value?
−5.05

* * *

experimentalProtocol: in vitro
experimentalSetup: PAMPA, pH 7.4, PAMPA-BBB log Pe (cm s−1), compound within ASFE extract; 4 h, 37°C, PBS pH 7.4
measuredParameter: Papp at 4 h (×10⁻⁶ cm/s)
Note: unit ×10⁻⁶ cm/s is implicit; provide only the numeric part.

COc1cc(C(=O)O)ccc1O [Vanillic acid] :: 2.14
O=c1c(O)c(-c2ccc(O)cc2)oc2cc(O)cc(O)c12 [Kaempferol] :: 2.29

Moving on to the next molecule.
Quick check: Papp at 4 h of O=C(/C=C/c1ccc(O)c(O)c1)c1ccc(O)cc1O [Butein] ?
2.19

* * *

experimentalProtocol: in vitro
experimentalSetup: PAMPA, pH 7.4, LogPe, permeability of BBB to quercetin, present study
measuredParameter: Papp at 4 h (×10⁻⁶ cm/s)
// units = ×10⁻⁶ cm/s; emit number, no label

Report Papp at 4 h for O=c1c(O)c(-c2ccc(O)c(O)c2)oc2cc(O)cc(O)c12 [Quercetin, reference compound] please.
0.0955

* * *

experimentalProtocol: in vitro
experimentalSetup: compound within RSFE extract
Experimental: The PAMPA-BBB assay was conducted according to the methodology followed by Di et al., with some modifications as described below ([15]). First, the BBB solution was prepared by dissolving 8 mg of PBL and 4 mg of cholesterol in 600 μl of n-dodecane. […] Permeability across in vitro BBB of the bioactive compound was measured according to Equation (1) ([25]), with some modifications in concentration rates. […] Cequilibrium was calculated according to the following equation ([2]): […]
measuredParameter: Cross BBB potential

COc1cc(C(=O)O)cc(OC)c1O [Syringic acid] :: -
COc1ccc(-c2cc(=O)c3c(O)c(O)c(OC)cc3o2)cc1 [Ladanein] :: +++ (log Pe > −4.5)
O=c1ccc2ccc(O)cc2o1 [Umbelliferone] :: +++ (log Pe > −4.5)
COc1cc(C(=O)O)ccc1O[C@@H]1O[C@H](CO)[C@@H](O)[C@H](O)[C@H]1O [Vanillic acid-O-hexoside] :: +++ (log Pe > −4.5)
COc1cc(-c2oc3cc(O)cc(O)c3c(=O)c2O[C@@H]2O[C@H](CO)[C@@H](O)[C@H](O)[C@H]2O)ccc1O [Isorhamnetin-3-O-glucoside] :: -
CC(C)c1cc2c(c(O)c1O)[C@@]13CCCC(C)(C)[C@@H]1[C@H](OC3=O)[C@H]2O [Rosmanol] :: +++ (log Pe > −4.5)
O=C(O)c1ccc(O)cc1 [p-salycilic acid] :: +++ (log Pe > −4.5)

Next item in the queue.
Would you kindly share the measured Cross BBB potential for CC(C)c1cc2c(c(O)c1O)[C@@]13CCCC(C)(C)[C@@H]1C[C@@H]2OC3=O [Carnosol] ?
+++ (log Pe > −4.5)

* * *

experimentalProtocol: in vitro
experimentalSetup: compound within LPLE (Nothofagus pumilio, lenga PLE extract); classes based on Könczöl et al.
measuredParameter: Cross BBB potential

Worked cases, answers included:
C[C@@H]1C(=O)C[C@@H](C(C)(C)O)O[C@@H]2C[C@@]3(C)[C@@H]4CC=C5[C@@H](C=C(O)C(=O)C5(C)C)[C@]4(C)C(=O)C[C@]3(C)[C@@H]12 :: -
COc1cc(/C=C/C(=O)OC(C(=O)O)C(O)C(=O)O)ccc1O (stereo not drawn) :: -
O=C(O[C@@H]1Cc2c(O)cc(O)cc2O[C@@H]1c1ccc(O)c(O)c1)c1cc(O)c(O)c(O)c1 [(-)-Epicatechin gallate] :: -
CC(CC(=O)C[C@@H](C)[C@H]1C[C@H](O)[C@@]2(C)C3=C(C(=O)C[C@]12C)[C@@]1(C)CC[C@H](O)C(C)(C)[C@@H]1CC3)C(=O)O (stereo partly drawn) :: -

Moving on to the next compound.
Reported Cross BBB potential for COc1ccc([C@@H]2CC(=O)c3c(O)cc(O[C@@H]4O[C@H](CO[C@@H]5O[C@@H](C)[C@H](O)[C@@H](O)[C@H]5O)[C@@H](O)[C@H](O)[C@H]4O)cc3O2)cc1O : what is it?
-

* * *

experimentalProtocol: in vitro
experimentalSetup: PAMPA, pH 7.4
Form field: PAMPA-BBB log Pe (cm s−1) (one value per entry).
Write down the value, and be sure its unit follows.

The cases that follow already have their PAMPA-BBB log Pe (cm s−1) on record.
COc1cc(/C=C/C=O)ccc1O [Coniferaldehyde] :: −4.24 cm s−1
COc1cc(/C=C/C(=O)O)ccc1O [Ferulic acid] :: −4.68 cm s−1
C=C(C)[C@@H]1CC[C@]2(C(=O)O)CC[C@]3(C)[C@H](CC[C@@H]4[C@@]5(C)CC[C@H](O)[C@@](C)(CO)[C@@H]5CC[C@]43C)[C@@H]12 [Anemosapogenin] :: −5.26 cm s−1

Next up:
Look up PAMPA-BBB log Pe (cm s−1): O=Cc1ccc(O)c(O)c1 [Protocatechuic aldehyde]
−5.75 cm s−1

* * *

experimentalProtocol: in vitro
experimentalSetup: PAMPA, pH 7.4, PAMPA-BBB log Pe (cm s−1), compound within T33 extract; 4 h, 37°C, PBS pH 7.4
measuredParameter: Papp at 4 h

Consider the compound shown here: CCOC(=O)/C=C/c1ccc(O)c(O)c1 [Ethyl caffeate] What is its recorded Papp at 4 h?
18.6 ×10⁻⁶ cm/s

Using the record for O=C(O)[C@]1(O)C[C@@H](O)[C@@H](O)[C@H](O)C1 , report its Papp at 4 h.
3.63 ×10⁻⁶ cm/s
